All values here come from patent US11384096B2.

study target: human PDE4D catalytic domain (Homo sapiens (Human))
Sequence (Q08499 380-740 limits assumed): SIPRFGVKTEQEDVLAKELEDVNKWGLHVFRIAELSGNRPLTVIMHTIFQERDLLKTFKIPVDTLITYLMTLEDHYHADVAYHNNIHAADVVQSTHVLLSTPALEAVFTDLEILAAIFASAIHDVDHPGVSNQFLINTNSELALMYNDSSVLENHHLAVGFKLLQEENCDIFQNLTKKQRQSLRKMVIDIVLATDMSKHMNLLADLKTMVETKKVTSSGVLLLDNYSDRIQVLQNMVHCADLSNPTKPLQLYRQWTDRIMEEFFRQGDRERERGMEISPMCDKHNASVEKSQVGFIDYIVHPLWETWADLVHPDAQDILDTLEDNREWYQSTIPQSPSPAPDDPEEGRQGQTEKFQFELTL
// reported IC50 per item

molecule: [O-][S+]1CCc2nc(N3CC(c4ccc(F)cc4)C3)cc(NC3CCOCC3)c21 (stereo in doubt)
IC50: 10 to 50 nM

Prompt: # query: IC50 | item COC(=O)N1CCC[C@@H](Nc2cc(N3CC(c4ccc(F)cc4)C3)nc3c2[S@+]([O-])CC3)C1 | system: human PDE4D catalytic domain (Homo sapiens (Human))
Completion: < 10 nM

Prompt: Enter reported IC50 observed with human PDE4D catalytic domain (Homo sapiens (Human)) for [O-][S@+]1CCc2nc(N3CC(c4ccccc4)C3)cc(NC3CCOCC3)c21
Completion: 10 to 50 nM

Prompt: Request body: readout IC50, system human PDE4D catalytic domain (Homo sapiens (Human)), query CC(=O)N1CC[C@H](Nc2cc(N3CC(Oc4ccc(F)cc4)C3)nc3c2[S@+]([O-])CC3)C1 . Return the value.
Completion: < 10 nM

Prompt: Find the measured IC50: item [O-][S+]1CCc2nc(N3CC(Oc4ccc(F)cc4)C3)cc(NC3CCOCC3)c21 (stereo in doubt) , target or system human PDE4D catalytic domain (Homo sapiens (Human)).
Completion: 10 to 50 nM

Prompt: Which measured IC50 belongs to COC(=O)N1CCC[C@@H](Nc2cc(N3CC(c4ccccc4)C3)nc3c2[S@+]([O-])CC3)C1 , tested on human PDE4D catalytic domain (Homo sapiens (Human))?
Completion: < 10 nM

Prompt: Item COC(=O)N1CC[C@H](Nc2cc(N3CC(Oc4ccc(F)cc4)C3)nc3c2[S@+]([O-])CC3)C1 with human PDE4D catalytic domain (Homo sapiens (Human)) - IC50?
Completion: 50 to 150 nM
